Biological target: T1, O14
T1 chain: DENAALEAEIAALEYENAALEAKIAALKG
Assay: two-hybrid library CCNG1;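 also: natural log of median RNA to DNA barcode read ratio; higher means stronger binding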
Give interaction score for every item shown.
Give bare numbers.

In the examples that follow, each entry is paired with its recorded interaction score.
>>> numeric_value("DKNAALKAENAALEYKIAALKAKIAALKG [O10]")
-2.41
>>> numeric_value("DKNAALKAENAALEYEIAALEAEIAALEG [O1]")
-2.4
>>> numeric_value("DENAALEAEIAALEYENAALEAKIAALKG [O14]")
-2.21

// for each binder in input: emit interaction score
1. DEIAALEAKIAALKYKNAALKAKNAALKG [O12]
2. DKIAALKAEIAALEYENAALEAENAALEG [O11]
3. DKNAALKAKIAALKYKNAALKAEIAALEG [O13]

Response line:
1: -1.45; 2: -2.48; 3: 1.68
